- protocol_notes: Nitric oxide (NO) radical scavenging activity (Griess reaction)
- condition: pure compounds
measured_property: IC50 (µM)
Only the number, expressed in µM, is required.

According to the records, this compound O=c1c(O)c(-c2ccc(O)c(O)c2)oc2cc(O)cc(O)c12 [Quercetin, Quercetin hydrate] displays IC50 of 310

* * *

- target_system: Human recombinant 5-lipoxygenase (Homo sapiens)
- Sequence (P09917 1-674): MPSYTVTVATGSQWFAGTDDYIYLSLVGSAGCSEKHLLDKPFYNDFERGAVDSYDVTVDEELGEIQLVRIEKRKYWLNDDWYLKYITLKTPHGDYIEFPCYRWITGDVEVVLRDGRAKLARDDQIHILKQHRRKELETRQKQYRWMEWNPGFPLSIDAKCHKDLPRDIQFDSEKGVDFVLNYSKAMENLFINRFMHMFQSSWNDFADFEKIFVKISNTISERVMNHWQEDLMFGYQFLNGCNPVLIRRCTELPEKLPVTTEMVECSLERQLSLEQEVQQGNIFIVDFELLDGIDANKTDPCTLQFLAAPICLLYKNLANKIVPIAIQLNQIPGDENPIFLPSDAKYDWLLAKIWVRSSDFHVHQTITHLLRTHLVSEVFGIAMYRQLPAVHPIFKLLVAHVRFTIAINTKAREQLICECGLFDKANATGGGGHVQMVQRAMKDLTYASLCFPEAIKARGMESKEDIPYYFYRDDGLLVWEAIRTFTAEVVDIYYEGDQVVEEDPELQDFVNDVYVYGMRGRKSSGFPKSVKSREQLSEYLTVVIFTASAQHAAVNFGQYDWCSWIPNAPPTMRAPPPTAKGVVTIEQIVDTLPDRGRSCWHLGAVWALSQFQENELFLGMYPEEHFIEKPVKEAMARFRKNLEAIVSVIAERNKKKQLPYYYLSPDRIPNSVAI
- protocol_notes: Steady-state inhibition kinetic study of 5-lipoxygenase
measured_property: Ki (nM)
Only the number, expressed in nM, is required.

According to the records, this compound COc1cc(O)c2c(c1)O[C@H](c1ccccc1)CC2=O [Pinostrobin, pinostrobin] displays Ki of 2280
